Hello, the source for this data is PubChem BioAssay (EPA / NIEHS), in case you need it.

# Read-out: Monokine induced gamma interferon (MIG), CXCL9 (gene 4283)
# measurement-protocol: BSK_CASM3C_MIG: BioMAP Diversity Plus: CASM3C Assay for Monokine induced gamma interferon (MIG) Biomarker Activity (AID 2283048);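 further: MIG protein level measured by ELISA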
# cond: primary human coronary artery smooth muscle cells; actives raise or lower the signal
The source made the active and inactive calls. How the source made its calls: active means hit-call score of the fitted dose curve at least 0.9, where 1 is the maximum; inactive means score below 0.9.
Use one of these outcomes when replying: T for active, F for inactive

Request: Outcome? `Oc1cc2ccccc2c2ccccc12`
Response: T

Request: Outcome? `CC(=O)CC(C)(C)O`
Response: F

Request: Outcome? `Oc1cccc(O)c1`
Response: F

Request: Outcome? `CCCCCCCCCCCCCC[N+](C)(C)C`
Response: T

Request: Outcome? `c1ccc2cc3c(ccc4ccccc43)cc2c1`
Response: F

Request: Outcome? `CCCOc1sc(C(=O)N2CCC(c3cc(CN)ccc3F)CC2)c(C)c1Br`
Response: T

Request: Outcome? `CC#C[C@]1(O)CC[C@H]2[C@@H]3CCC4=CC(=O)CCC4=C3[C@@H](c3ccc(N(C)C)cc3)C[C@@]21C`
Response: F

Request: Outcome? `CCCCCCCC(=O)O`
Response: F

Request: Outcome? `CCCCOCCO`
Response: F

Request: Outcome? N#C[C@@H]1CC(F)(F)CN1C(=O)CNC1CC2CCC(C1)N2c1ncccn1 (stereo partly drawn)
Response: F

Request: Outcome? CCC(C)(C)C1CCC(O)CC1 (stereo not drawn)
Response: F

Request: Outcome? `CC(C)(C)c1ccc(O)c(C(C)(C)C)c1`
Response: T

Request: Outcome? `CN1CCN(c2ccccc2/C=C2\SCCN(c3ccc(Cl)c(Cl)c3)C2=O)CC1`
Response: F
